B1: Subtilisin inhibitor, P01006 (parent)
chain: MRNTGAGPSPSVSRPPPSAAPLSGAALAAPGDAPSALYAPSALVLTVGKGVSATTAAPERAVTLTCAPGPSGTHPAAGSACADLAAVGGDLNALTRGEDVMCPMVYDPVLLTVDGVWQGKRVSYERVFSNECEMNAHGSSVFAF

Variants of: B1
Settings: Streptomyces albogriseolus; pH 7; Thermal; DSC; Sodium phosphate 25 mM; reversible: yes; structure 3SSI; whole UniProt chain shown
parameter: unfolding enthalpy (calorimetric)
# number then unit; no other words

Solved cases (3 shown):
1. MRNTGAGPSPSVSRPPPSAAPLSGAALAAPGDAPSALYAPSALVLTVGKGVSATTAAPERAVTLTCAPGPSGTHPAAGSACADLAAVGGDLNALTRGEDVMCPMVYDPVLLTVDGVWQGKRVSYERVFSNECEINAHGSSVFAF [M134I]    179 kcal/mol
2. MRNTGAGPSPSVSRPPPSAAPLSGAALAAPGDAPSALYAPSALVLTVGKGVSATTAAPERAVTLTCAPGPSGTHPAAGSACADLAAVGGDLNALTRGEDVMCPMVYDPVLLTVDGVWQGKRVSYERVFSNECEVNAHGSSVFAF [M134V]    179 kcal/mol
3. MRNTGAGPSPSVSRPPPSAAPLSGAALAAPGDAPSALYAPSALVLTVGKGVSATTAAPERAVTLTCAPGPSGTHPAAGSACADLAAVGGDLNALTRGEDVMCPMVYDPVLLTVDGVWQGKRVSYERVFSNECELNAHGSSVFAF [M134L]    182 kcal/mol

Now consider the entry below.
Q) Specify reported unfolding enthalpy (calorimetric) for the variant shown: MRNTGAGPSPSVSRPPPSAAPLSGAALAAPGDAPSALYAPSALVLTVGKGVSATTAAPERAVTLTCAPGPSGTHPAAGSACADLAAVGGDLNALTRGEDVMCPMVYDPVLLTVDGVWQGKRVSYERVFSNECEGNAHGSSVFAF [M134G]
A) 191 kcal/mol
